Target: PI3Kδ (p110δ/p85α) (Homo sapiens (Human))
Sequence (O00329 whole entry): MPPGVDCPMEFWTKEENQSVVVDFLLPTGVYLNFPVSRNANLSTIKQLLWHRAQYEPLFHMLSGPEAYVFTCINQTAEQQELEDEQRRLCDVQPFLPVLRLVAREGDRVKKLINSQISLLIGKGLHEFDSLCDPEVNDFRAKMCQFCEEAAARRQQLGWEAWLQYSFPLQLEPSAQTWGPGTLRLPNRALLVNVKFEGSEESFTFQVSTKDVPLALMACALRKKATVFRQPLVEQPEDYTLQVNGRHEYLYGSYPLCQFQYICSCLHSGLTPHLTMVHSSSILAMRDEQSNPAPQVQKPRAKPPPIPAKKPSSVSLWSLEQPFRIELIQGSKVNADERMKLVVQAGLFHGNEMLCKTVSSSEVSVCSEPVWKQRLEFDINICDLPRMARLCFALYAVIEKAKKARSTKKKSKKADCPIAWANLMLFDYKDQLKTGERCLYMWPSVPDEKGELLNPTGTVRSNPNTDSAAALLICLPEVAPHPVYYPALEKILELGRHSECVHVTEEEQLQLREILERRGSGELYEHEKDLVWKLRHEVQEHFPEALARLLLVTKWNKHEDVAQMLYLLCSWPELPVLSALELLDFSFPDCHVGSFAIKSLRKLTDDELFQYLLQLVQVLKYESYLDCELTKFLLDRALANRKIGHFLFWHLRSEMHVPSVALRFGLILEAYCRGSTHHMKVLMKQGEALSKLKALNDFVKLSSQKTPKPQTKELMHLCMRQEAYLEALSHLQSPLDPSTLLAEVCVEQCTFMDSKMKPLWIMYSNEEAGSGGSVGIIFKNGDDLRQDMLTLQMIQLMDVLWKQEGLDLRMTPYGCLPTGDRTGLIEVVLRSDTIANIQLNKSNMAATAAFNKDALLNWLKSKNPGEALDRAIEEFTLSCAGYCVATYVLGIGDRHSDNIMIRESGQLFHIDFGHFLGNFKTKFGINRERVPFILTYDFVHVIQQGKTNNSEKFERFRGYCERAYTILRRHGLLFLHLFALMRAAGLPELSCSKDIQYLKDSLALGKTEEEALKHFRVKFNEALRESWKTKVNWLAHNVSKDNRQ
Sequence (P27986 whole entry partner): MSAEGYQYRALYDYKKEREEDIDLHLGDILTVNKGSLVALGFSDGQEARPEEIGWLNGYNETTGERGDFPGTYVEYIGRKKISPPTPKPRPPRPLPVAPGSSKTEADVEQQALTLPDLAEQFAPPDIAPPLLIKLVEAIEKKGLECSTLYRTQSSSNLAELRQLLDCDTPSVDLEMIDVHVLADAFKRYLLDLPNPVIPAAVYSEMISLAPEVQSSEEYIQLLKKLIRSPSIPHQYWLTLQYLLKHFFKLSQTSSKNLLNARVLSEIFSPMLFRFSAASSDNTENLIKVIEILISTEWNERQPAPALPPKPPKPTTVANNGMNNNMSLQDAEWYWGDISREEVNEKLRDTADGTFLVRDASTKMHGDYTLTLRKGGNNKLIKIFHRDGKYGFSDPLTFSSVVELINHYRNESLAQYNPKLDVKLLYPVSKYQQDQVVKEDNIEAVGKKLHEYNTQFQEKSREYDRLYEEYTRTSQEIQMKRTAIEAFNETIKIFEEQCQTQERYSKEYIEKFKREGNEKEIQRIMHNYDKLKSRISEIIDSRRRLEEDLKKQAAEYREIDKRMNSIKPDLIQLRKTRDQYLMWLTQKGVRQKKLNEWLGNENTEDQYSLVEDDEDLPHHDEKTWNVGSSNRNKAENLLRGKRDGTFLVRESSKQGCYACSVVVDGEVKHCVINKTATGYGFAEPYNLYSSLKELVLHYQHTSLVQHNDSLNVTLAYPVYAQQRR
Experiment: PI3Kδ scintillation proximity assay (Example A3)
Settings: 20 μM ATP, 20 μM PIP2, 4 nM PI3Kδ; read-out: PI3Kδ SPA IC50
pIC50: −log10 of the molar value.
property-name: pIC50

Field: example entries. Status: answers known.
compound | property-name | result
COc1c(C(C)n2ccc(=O)c3c(N)ncnc32)cc(Cl)c(C)c1-c1ccc(C(=O)N(C)C)nc1 (single isomer, unassigned) [25 (2nd peak)] | pIC50 | ≥ 8.00
CCOc1c(C(C)n2nc(CC)c3c(N)ncnc32)cc(Cl)c(C)c1-c1ccc(C(=O)N(C)C)nc1 (racemic) [Example 81] | pIC50 | 6.70 to 7.30
CCOc1c(C(C)n2nc(C)c3c(N)ncnc32)cc(Cl)c(C#N)c1C1CN(C(=O)CC)C1 (single isomer, unassigned) [Example 243] | pIC50 | ≥ 8.00
CCOc1c(C(C)n2nc(C(F)F)c3c(N)ncnc32)cc(Cl)c(F)c1C1CN(C(C)C)C1 (racemic) [Example 150] | pIC50 | ≥ 8.00

Read the next record carefully.
What value of pIC50 has been recorded for this entry: COc1c(C(C)n2nc(C)c3c(N)ncnc32)cc(Cl)c(C)c1C1CN(C(C)C)C1 (single isomer, unassigned) [Example 1, bis(trifluoroacetate)] ≥ 8.00

Origin of the recorded values: patent US9707233B2
